Values from patent US4518413A

Collected % Inhibition values appear next to each entry.
System: soil urease
Assay: Efficacy test: inhibition of urease-catalysed urea hydrolysis in soil (urea remaining after incubation)
Type: biochemical
Details: New York soil (Cazenovia silt loam, pH 7.2); 800 micrograms test compound and 42.8 mg urea per 20 g air-dry soil; incubated at 25° C. for three days; run in triplicate
ENDPOINT NAME: % Inhibition (%)

>  <COMPOUND>
NP(N)(=O)Oc1ccc(OP(N)(N)=O)cc1

>  <UNIT SYMBOL>
%

>  <NUMBER>
90

$$$$
>  <COMPOUND>
CC(C)(c1ccc(OP(N)(N)=O)cc1)c1ccc(OP(N)(N)=O)cc1

>  <UNIT SYMBOL>
%

>  <NUMBER>
70

$$$$
>  <COMPOUND>
NP(N)(=O)N1CCN(P(N)(N)=O)CC1

>  <UNIT SYMBOL>
%

>  <NUMBER>
76

$$$$
>  <COMPOUND>
NP(N)(=O)NCCCCCCNP(N)(N)=O

>  <UNIT SYMBOL>
%

>  <NUMBER>
86

$$$$
>  <COMPOUND>
NP(N)(=O)Oc1cccc(OP(N)(N)=O)c1

>  <UNIT SYMBOL>
%

>  <NUMBER>
81

$$$$
>  <COMPOUND>
CC1(NP(N)(N)=O)CCC(C(C)(C)NP(N)(N)=O)CC1 (stereo not drawn)

>  <UNIT SYMBOL>
%

>  <NUMBER>
84

$$$$
